Biological target: Dual specificity mitogen-activated protein kinase kinase 1 (Homo sapiens); note: in the data inactive means no Kd found up to 30 µM
Sequence (Q02750 whole entry): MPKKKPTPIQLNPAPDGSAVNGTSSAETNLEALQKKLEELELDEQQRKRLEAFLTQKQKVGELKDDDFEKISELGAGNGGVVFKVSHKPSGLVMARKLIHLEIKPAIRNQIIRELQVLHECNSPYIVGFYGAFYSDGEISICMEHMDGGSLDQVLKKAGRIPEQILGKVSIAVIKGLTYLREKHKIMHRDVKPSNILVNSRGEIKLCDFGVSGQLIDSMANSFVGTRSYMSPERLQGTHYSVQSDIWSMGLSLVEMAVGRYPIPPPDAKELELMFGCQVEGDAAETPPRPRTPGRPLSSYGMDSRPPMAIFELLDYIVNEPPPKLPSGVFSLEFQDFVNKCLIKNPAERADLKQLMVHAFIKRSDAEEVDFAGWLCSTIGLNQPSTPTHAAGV
Calls of active or inactive are those of the source.
The reply should name one outcome from class 1 (active), class 0 (inactive)

Reference set (4 entries):
{"Compound": "Cn1cc(-c2cnc3ccc4ccc(CS(=O)(=O)NCc5ccccn5)cc4c(=O)c3c2)cn1", "Answer Label": "class 0"}
{"Compound": "Cc1[nH]c(/C=C2\\C(=O)Nc3ccccc32)c(C)c1CCC(=O)O [ORANTINIB]", "Answer Label": "class 1"}
{"Compound": "Cc1nc2cc(-n3ncc(C(=O)c4cc5ccccc5[nH]4)c3N)ccc2[nH]1", "Answer Label": "class 0"}
{"Compound": "Cc1nc(Nc2n[nH]c3c2CN(C(=O)N[C@H](CN(C)C)c2ccccc2)C3(C)C)c2sccc2n1", "Answer Label": "class 0"}

Req: Any idea what this test logged for `CN(C[C@@H]1COCCO1)S(=O)(=O)Nc1ccc2ccc3ncc(-c4cnn(C)c4)cc3c(=O)c2c1` ?
Resp: class 0

Req: Any idea what this test logged for `COc1c(OCCCN2CCOCC2)ccc2c1N=C(NC(=O)c1cnc(N)nc1)N1CCN=C21` ?
Resp: class 0

Req: Any idea what this test logged for `CNC(=O)c1cc(Oc2ccc(NC(=O)Nc3cc(C(C)(C)C)nn3-c3ccc4ncccc4c3)c(F)c2)ccn1` ?
Resp: class 0

Req: Any idea what this test logged for `CC(=O)c1cnc2ccc(-c3cc(Cl)c(O)c(Cl)c3)nc2c1N[C@H]1CC[C@H](CN(C)C)CC1` ?
Resp: class 1

###

Calls of active or inactive are those of the source.
The following are reported Kd results, target or system MAP kinase-activated protein kinase 2 (Homo sapiens, UniProt P49137). Note: in the data inactive means no Kd found up to 30 µM.

Worked examples follow.
{"Mol": "NC(=O)Nc1cc(-c2cccc(F)c2)sc1C(=O)N[C@H]1CCCNC1", "Kd": "> 30 µM (inactive)"}
{"Mol": "COc1cc2ncnc(Oc3cccc(NC(=O)Nc4cc(C(C)(C)C(F)(F)F)on4)c3)c2cc1OC", "Kd": "0.49 µM (active)"}
{"Mol": "Cc1cc(C(=O)NOCCO)c(Nc2ccc(I)cc2F)n(C)c1=O", "Kd": "> 30 µM (inactive)"}

Then this compound:
Req: Tell me the measured Kd of `Cc1nc(NC(=O)N2CCC[C@H]2C(N)=O)sc1-c1ccnc(C(C)(C)C(F)(F)F)c1` , please.
Resp: > 30 µM (inactive)

###

Target: Serine/threonine-protein kinase N2 (Homo sapiens); note: in the data inactive means no Kd found up to 30 µM
Sequence (Q16513 whole entry): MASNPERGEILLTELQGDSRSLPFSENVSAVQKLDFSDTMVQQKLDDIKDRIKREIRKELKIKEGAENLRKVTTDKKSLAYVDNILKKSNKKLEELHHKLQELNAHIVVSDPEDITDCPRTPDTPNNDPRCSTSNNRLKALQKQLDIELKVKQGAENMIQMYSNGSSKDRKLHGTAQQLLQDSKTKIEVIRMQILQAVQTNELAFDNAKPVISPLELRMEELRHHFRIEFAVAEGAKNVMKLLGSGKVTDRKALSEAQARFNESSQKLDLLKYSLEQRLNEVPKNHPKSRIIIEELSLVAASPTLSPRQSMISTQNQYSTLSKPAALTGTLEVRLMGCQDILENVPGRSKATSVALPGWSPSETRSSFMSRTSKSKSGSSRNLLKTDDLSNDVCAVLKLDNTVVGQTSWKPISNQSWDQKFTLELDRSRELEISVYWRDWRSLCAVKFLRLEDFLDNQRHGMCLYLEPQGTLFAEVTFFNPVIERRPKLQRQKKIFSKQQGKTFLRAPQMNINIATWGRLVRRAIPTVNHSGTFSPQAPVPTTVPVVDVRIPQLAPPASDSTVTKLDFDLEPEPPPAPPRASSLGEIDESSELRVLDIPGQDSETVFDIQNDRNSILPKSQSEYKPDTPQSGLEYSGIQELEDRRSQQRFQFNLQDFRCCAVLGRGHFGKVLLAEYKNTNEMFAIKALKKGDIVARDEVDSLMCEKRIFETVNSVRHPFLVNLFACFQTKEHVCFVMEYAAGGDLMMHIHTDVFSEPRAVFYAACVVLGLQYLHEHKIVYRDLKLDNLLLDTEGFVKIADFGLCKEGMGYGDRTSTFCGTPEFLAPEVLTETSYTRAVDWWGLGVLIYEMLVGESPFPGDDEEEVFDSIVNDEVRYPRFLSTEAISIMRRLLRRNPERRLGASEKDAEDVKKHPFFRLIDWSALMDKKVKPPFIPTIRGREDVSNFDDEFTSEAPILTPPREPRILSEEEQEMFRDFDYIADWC
Counter-ions that a name gives are not always drawn. Active and inactive are the calls of the source.
The reply should name one outcome from True for active, False for inactive

Reference set (4 entries):
{"Compound": "Cc1cc(C(=O)NOCCO)c(Nc2ccc(I)cc2F)n(C)c1=O", "Answer Label": "False"}
{"Compound": "CCn1c(C(=O)N(C2CC2)C2CC2)cc2c3c(ncn3C)c(Nc3cc(C)n(C)n3)nc21", "Answer Label": "False"}
{"Compound": "CCS(=O)(=O)c1cccc(-c2cc(C(=O)NC3CCN(C)CC3)c(C)c3[nH]c4ncc(C)cc4c23)c1", "Answer Label": "False"}
{"Compound": "CC(C)c1cc(CNc2nc(Nc3cc(C4CC4)[nH]n3)cc(N3CCN(C)CC3)n2)on1", "Answer Label": "False"}

Req: Any idea what this test logged for `Cn1cc(-c2cnn3c(N)c(Br)c([C@@H]4CCCNC4)nc23)cn1` ?
Resp: False

Req: Any idea what this test logged for O=C1NC(=O)[C@@H](c2cn3c4c(cccc24)CCC3)[C@@H]1c1c[nH]c2ccccc12 [TIVANTINIB] ?
Resp: False

Req: Any idea what this test logged for `CNC(=O)c1cccc2cc(Oc3ccnc4cc(OCC5(N)CC5)c(OC)cc34)ccc12` ?
Resp: False

Req: Any idea what this test logged for `Nc1ncnc2c1c(-c1cccc(OCc3ccccc3)c1)cn2[C@H]1C[C@@H](CN2CCC2)C1` ?
Resp: False

Req: Any idea what this test logged for CCS(=O)(=O)N1CCN(c2ccc(Nc3ncc(C(N)=O)c(NC4CC4)n3)cc2)CC1 [Cerdulatinib Hydrochloride] ?
Resp: False

Req: Any idea what this test logged for `CNC(=O)c1nn(C)c2c1C(C)(C)Cc1cnc(Nc3ccc(N4CCN(C)CC4)cc3)nc1-2` ?
Resp: False

Req: Any idea what this test logged for C=CC(=O)Nc1cc2c(Nc3ccc(F)c(Cl)c3)ncnc2cc1C#CC(C)(C)N1CCN(C)CC1 [AV-412 FREE BASE] ?
Resp: False

Req: Any idea what this test logged for `CN(C[C@@H]1COCCO1)S(=O)(=O)Nc1ccc2ccc3ncc(-c4cnn(C)c4)cc3c(=O)c2c1` ?
Resp: False

Req: Any idea what this test logged for `Cc1csc(-c2nnc(Nc3ccc(Oc4ncccc4-c4ccnc(N)n4)cc3)c3ccccc23)c1` ?
Resp: False

Req: Any idea what this test logged for `CC(C)(C)c1nc(-c2cccc(NS(=O)(=O)c3c(F)cccc3F)c2F)c(-c2ccnc(N)n2)s1` ?
Resp: False

Req: Any idea what this test logged for `O=C(Nc1c[nH]nc1-c1nc2cc(CN3CCOCC3)ccc2[nH]1)NC1CC1` ?
Resp: True

Req: Any idea what this test logged for `Cc1cnc(NC(=O)Nc2cc(Br)c(C)cc2OC[C@@H]2CNCCO2)cn1` ?
Resp: False

Req: Any idea what this test logged for `Cn1ncc(Cl)c1-c1cc(C(=O)N[C@H](CN)Cc2ccc(F)c(F)c2)oc1Cl` ?
Resp: False

Req: Any idea what this test logged for `NC(=O)Nc1cc(-c2cccc(F)c2)sc1C(=O)N[C@H]1CCCNC1` ?
Resp: True

Req: Any idea what this test logged for `Cc1cc(Nc2ncc(Cl)c(Nc3ccccc3S(=O)(=O)C(C)C)n2)c(OC(C)C)cc1C1CCNCC1` ?
Resp: False

Req: Any idea what this test logged for `CNC(=O)c1cc(Oc2ccc(NC(=O)Nc3cc(C(C)(C)C)nn3-c3ccc4ncccc4c3)c(F)c2)ccn1` ?
Resp: False

Reference source: ChEMBL document CHEMBL3991601
